Recorded values, source ChEMBL document CHEMBL1201862.

Target: RNA-binding protein pos-1 (Caenorhabditis elegans)
Sequence (G5EF15 whole entry): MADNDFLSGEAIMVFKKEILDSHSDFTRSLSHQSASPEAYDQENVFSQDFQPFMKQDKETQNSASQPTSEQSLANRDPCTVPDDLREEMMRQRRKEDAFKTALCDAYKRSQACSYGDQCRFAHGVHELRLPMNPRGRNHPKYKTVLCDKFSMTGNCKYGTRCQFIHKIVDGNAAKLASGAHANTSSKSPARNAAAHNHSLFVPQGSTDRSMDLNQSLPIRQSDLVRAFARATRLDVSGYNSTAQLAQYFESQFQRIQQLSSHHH
Assay: disruptors of C. elegans POS-1 RNA interaction – biochemical, fluorescence polarization, dose response (AID 1964);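 further: purified POS-1 fused to maltose binding protein made in E. coli; potency of compounds blocking POS-1 binding to fluorescent RNA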
Calls of active or inactive are those of the source.
Measured EC50, listed per entry.

>  <compound>
COc1ccc(-n2nc3c(=O)[nH][nH]c3cc2=O)cc1

>  <EC50>
13.1 µM (active)

$$$$
>  <compound>
CN1C(=O)/C(=C/C=C/c2ccco2)C(=O)NC1=S

>  <EC50>
33.5 µM (active)

$$$$
>  <compound>
O=C(NC(=S)NNS(=O)(=O)c1ccccc1)c1cccnc1

>  <EC50>
> 300 µM (not active)

$$$$
>  <compound>
Cc1ccc(N=Nc2[nH]c3ccccc3c2O)cc1

>  <EC50>
16 µM (active)

$$$$
>  <compound>
CC(C)CNC(=O)C1Nc2ccccc2C2C=CCC12 (stereo unspecified)

>  <EC50>
> 300 µM (not active)

$$$$
>  <compound>
CC(=O)N/C=C1\C(=O)N(C)C(=O)C(C#N)=C1C

>  <EC50>
36.1 µM (active)

$$$$

###

Measured IC50, listed per entry.
Molecular target: 26S proteasome non-ATPase regulatory subunit 14 (Homo sapiens, UniProt O00487)
Sequence (O00487 whole entry): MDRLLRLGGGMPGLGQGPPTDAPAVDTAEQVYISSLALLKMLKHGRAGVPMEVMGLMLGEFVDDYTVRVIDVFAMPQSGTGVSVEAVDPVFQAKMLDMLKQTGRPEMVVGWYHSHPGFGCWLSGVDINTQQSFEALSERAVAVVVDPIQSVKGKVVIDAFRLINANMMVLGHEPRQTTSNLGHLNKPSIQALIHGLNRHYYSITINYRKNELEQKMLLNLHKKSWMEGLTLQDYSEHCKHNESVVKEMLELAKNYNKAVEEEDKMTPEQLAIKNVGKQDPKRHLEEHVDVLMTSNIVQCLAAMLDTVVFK
Assay: inhibition of proteasome subunit RPN11 – biochemical, fluorescence polarization, uHTS hits, confirmation (AID 602368)
Assay type: functional
Active and inactive are the calls of the source.
readout name: IC50

>  <chemical structure>
COc1ccc(/C(C)=N/NC(=O)c2nnn(-c3nonc3N)c2-c2ccccc2)cc1

>  <tgt>
26S proteasome non-ATPase regulatory subunit 14 (Homo sapiens, UniProt O00487)

>  <measured result>
30.2 µM (active)

$$$$
>  <chemical structure>
C/C(=N\Nc1ccc([N+](=O)[O-])cc1)c1cc2ccccc2o1

>  <tgt>
26S proteasome non-ATPase regulatory subunit 14 (Homo sapiens, UniProt O00487)

>  <measured result>
1.82 µM (active)

$$$$
>  <chemical structure>
Cc1ccc(CNC(=O)c2nnn(CC(=O)Nc3cc(C)cc(C)c3)c2N)cc1

>  <tgt>
26S proteasome non-ATPase regulatory subunit 14 (Homo sapiens, UniProt O00487)

>  <measured result>
35.4 µM (active)

$$$$
>  <chemical structure>
COc1ccccc1Cc1c(-c2cccc(Cl)c2)nc2ccc(Br)cn12

>  <tgt>
26S proteasome non-ATPase regulatory subunit 14 (Homo sapiens, UniProt O00487)

>  <measured result>
14.2 µM (active)

$$$$

###

Assay: NIH3T3 cell viability loss – ATP luminescence, mouse fibroblasts, counter-screen, dose response (AID 2010);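 further: cells exposed to compound for about 90 hours before reading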
Format: functional, cell-based
The source made the active and inactive calls.
readout name: EC50

>  <compound>
N#CC1=C(N)Oc2c(ccc3ccccc23)C1c1ccsc1 (stereo not given)

>  <measured result>
0.253 µM (active)

$$$$
>  <compound>
Clc1ccc(SCCN2CCNCC2)cc1

>  <measured result>
9.8 µM (active)

$$$$
>  <compound>
CC(C)C(=O)N1CCN(c2cc(N3CCN(C)CC3)c(F)cc2[N+](=O)[O-])CC1

>  <measured result>
> 60 µM (not active)

$$$$
>  <compound>
O=[N+]([O-])c1nn(-c2ccccc2)[n+]([O-])c1N1CCN(c2ccccc2)CC1

>  <measured result>
> 60 µM (not active)

$$$$
>  <compound>
O=C(Cn1cnc2cc([N+](=O)[O-])ccc2c1=O)NC(=O)NCc1ccccc1

>  <measured result>
> 60 µM (not active)

$$$$
>  <compound>
O=C(Nc1nc2ccccc2n1Cc1ccc(Cl)cc1)c1ccco1

>  <measured result>
> 60 µM (not active)

$$$$
>  <compound>
Cc1sc2ncnc(N3CCN(CCOc4ccc(Cl)cc4)CC3)c2c1C

>  <measured result>
> 30 µM (not active)

$$$$
>  <compound>
CC(=O)c1ccc(S(=O)(=O)N2CCN(c3nc4c(C)c(C)ccc4cc3C#N)CC2)cc1

>  <measured result>
> 60 µM (not active)

$$$$
>  <compound>
Cc1c2c(n3c(nc4ccccc43)c1C#N)N(CCN(C)C)CC2

>  <measured result>
20.6 µM (active)

$$$$
>  <compound>
COc1ccc(C(Nc2cc(C)ccn2)c2ccc3ccc(C)nc3c2O)cc1 (stereo not given)

>  <measured result>
24.7 µM (active)

$$$$

###

Target: Nonstructural protein 1 (Influenza A virus, UniProt Q194T2)
Sequence (Q194T2 whole entry): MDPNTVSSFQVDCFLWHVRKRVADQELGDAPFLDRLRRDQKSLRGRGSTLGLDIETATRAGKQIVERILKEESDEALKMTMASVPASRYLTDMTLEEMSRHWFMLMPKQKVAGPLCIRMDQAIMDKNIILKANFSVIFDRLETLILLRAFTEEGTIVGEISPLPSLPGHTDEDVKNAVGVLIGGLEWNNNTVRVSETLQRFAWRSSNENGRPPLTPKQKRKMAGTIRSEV
Type: functional, Influenza A virus (A/California/07/2009(H1N1))
Activity calls are given as the source filed them.
Measured IC50, listed per entry.

>  <chemical structure>
COC1=C(Nc2ccccc2)C(=O)c2ccccc2C1=O

>  <IC50>
12 µM (active)

$$$$
>  <chemical structure>
COc1ccc(NC(=O)CSc2n[nH]c(-c3ccccn3)n2)cc1

>  <IC50>
4.25 µM (active)

$$$$
>  <chemical structure>
COc1ccc(C(=O)N/N=C/c2cccc3cccnc23)cc1

>  <IC50>
5.8 µM (active)

$$$$
>  <chemical structure>
O=[N+]([O-])c1ccc(O)c(/C=N/Nc2ncnc3c2cnn3-c2ccccc2)c1

>  <IC50>
> 100 µM (active)

$$$$

###

Target: Replicative DNA helicase DnaB (Mycobacterium tuberculosis)
Assay: DnaB intein splicing inhibitors, dose response, biochemical, cell-free fluorescence (AID 449749)
Assay type: functional
Calls of active or inactive are those of the source.
Outcome codes: Y = active, N = inactive

>  <compound>
Cc1cc(Sc2nnc(/N=C/N(C)C)s2)c2ccccc2n1

>  <class>
Y

$$$$
>  <compound>
Cn1ccnc1Sc1cc(NCCCO)c([N+](=O)[O-])c2nonc12

>  <class>
Y

$$$$
>  <compound>
CS(=O)(=O)c1ncc(Cl)c(C(=O)Nc2ccc(N3CCOCC3)cc2)n1

>  <class>
Y

$$$$
>  <compound>
COc1cc(/C=C/c2sc3ccccc3[n+]2CCCS(=O)(=O)[O-])ccc1O

>  <class>
N

$$$$
>  <compound>
CCN1CCN(c2c(Cl)cccc2NC(=O)c2ccc3c(c2)OCCO3)CC1

>  <class>
N

$$$$
>  <compound>
CCc1ccc(NC(=O)c2nc(S(=O)(=O)Cc3ccccc3)ncc2Cl)cc1

>  <class>
Y

$$$$
>  <compound>
Cc1[nH]n(-c2ccccc2)c(=O)c1C(c1ccc(O)c([N+](=O)[O-])c1)c1c(C)[nH]n(-c2ccccc2)c1=O

>  <class>
Y

$$$$
>  <compound>
COc1ccc(C(O)c2nccc3cc(OC)c(OC)cc23)cc1OC (stereo unspecified)

>  <class>
Y

$$$$
>  <compound>
COc1cc(/C=C2/C(=O)N(c3ccc(C)c(C)c3)N=C2C)cc([N+](=O)[O-])c1O

>  <class>
Y

$$$$
>  <compound>
Cc1[nH]n(C(N)=S)c(=O)c1C(c1ccccc1)C(C#N)C#N (stereo unspecified)

>  <class>
Y

$$$$
>  <compound>
Cc1ccc(Sc2ncnc3onc(C)c23)cc1

>  <class>
Y

$$$$

###

Assay: Luminescence Cell-Based Dose Retest to Confirm Inhibitors of Cancer Stem Cells. [Related pubchem assays (depositor defined):AID2717, AID2721]
Assay type: functional
Settings: Homo sapiens
Calls of active or inactive are those of the source.
Measured AC50, listed per entry.

>  <compound>
O=C(O)CCN1C(=O)C(=C2CCCCCC2)SC1=S

>  <AC50>
40.8 µM (active)

$$$$
>  <compound>
COC(=O)c1ccc(CN(c2ccc(C(=O)O)c(O)c2)S(=O)(=O)c2ccc(Cl)c([N+](=O)[O-])c2)cc1

>  <AC50>
4.38 µM (active)

$$$$
>  <compound>
O=C1C2C(c3ccccc3)CC=CC2[C@H](c2ccc(C(F)(F)F)cc2)N1Cc1ccccc1 (some centres not stated)

>  <AC50>
5.21 µM (active)

$$$$
>  <compound>
CCCC(c1nnnn1CC1CCCO1)N1CCN(c2cc(Cl)ccc2C)CC1 (configuration not stated)

>  <AC50>
3.53 µM (active)

$$$$
>  <compound>
CS(=O)(=O)c1ncc(Cl)c(C(=O)Nc2ccc(N3CCOCC3)cc2)n1

>  <AC50>
5.14 µM (active)

$$$$
>  <compound>
O=C(CN1CCCC1)Nc1ccc(Cl)cc1C(=O)c1ccccc1

>  <AC50>
16.1 µM (active)

$$$$
>  <compound>
NC(=O)c1sc(-c2ccsc2)cc1NS(=O)(=O)c1ccc(C(F)(F)F)cc1

>  <AC50>
11.7 µM (active)

$$$$
